pKi, Carbonic anhydrase 9 (Homo sapiens, UniProt Q16790): measured values
pKi: −log10 of the molar value.
measured attribute: pKi

Example entries begin here.
1. NS(=O)(=O)c1cccc(/N=C2\NC(=O)/C(=C3/C(=O)Nc4ccc(Br)cc43)S2)c1 ... 7.80
2. NS(=O)(=O)c1ccc(/N=C2\NC(=O)/C(=C3/C(=O)N(Cc4ccccc4)c4ccccc43)S2)cc1 ... 6.93
3. CN1C(=O)/C(=C2\S/C(=N/c3ccc(S(N)(=O)=O)cc3)NC2=O)c2cc(Br)ccc21 ... 7.41
4. Cc1ccc2c(c1)/C(=C1/S/C(=N/c3ccc(S(N)(=O)=O)cc3)NC1=O)C(=O)N2 ... 7.14
5. Cc1cc(C)c2c(c1)/C(=C1/S/C(=N/c3ccc(S(N)(=O)=O)cc3)NC1=O)C(=O)N2 ... 7.00

[P] NS(=O)(=O)c1ccc(/N=C2\NC(=O)/C(=C3/C(=O)N(Cc4ccccc4)c4ccc(Cl)cc43)S2)cc1
[Q] NS(=O)(=O)c1cccc(/N=C2\NC(=O)/C(=C3/C(=O)Nc4ccccc43)S2)c1
Problem: Pick the one with the larger pKi: P vs Q Selection: enter the item's label.
Result: Q
